Test system: Piricularia oryzae (rice blast)
ASSAY_EXPLANATION: whole plant or invertebrate
CONDITION_DETAILS: Pyricularia oryzae, 48 h, read-out: Preventive value
Catalogue of pest or weed control at 500 ppm readings, one per entry.
Express the result in % but write the number alone.

Check out these entries, answers already filled in.
# COMPOUND, RESULT_NUMBER
rows = [
    ("CCCCCCCCCCCC(=O)N[C@@H](CCCNC(N)=O)C(=O)OC", 82),
    ("CCCCCCCCCCCC(=O)NC(Cc1ccc([N+](=O)[O-])cc1)C(=O)O (stereo not shown)", 73),
    ("CCCCCCCCCCCC(=O)N[C@@H](CC(C)C)C(=O)O", 73),
    ("CCCCCCCCCCCC(=O)N[C@@H](CC(=O)O)C(=O)O", 65),
]

// query What pest or weed control at 500 ppm value was documented for this compound, CCCCCCCCCCCCCC(=O)N[C@@H](CCCNC(=N)N)C(=O)OCC ?
// result 75

// query What pest or weed control at 500 ppm value was documented for this compound, CCCCCCCC/C=C\CCCCCCCC(=O)NCC(=O)O ?
// result 67

// query What pest or weed control at 500 ppm value was documented for this compound, CCCCCCCCCCCCCC(=O)NCC(=O)O ?
// result 70

// query What pest or weed control at 500 ppm value was documented for this compound, CCCCCCCCCCCCCCCCCC(=O)NCC(=O)O ?
// result 80

// query What pest or weed control at 500 ppm value was documented for this compound, CCCCCCCCCC(=O)NC(CCSC)C(=O)O (stereo not shown) ?
// result 67

// query What pest or weed control at 500 ppm value was documented for this compound, CCCCCCCCCCCC(=O)NCC(=O)O ?
// result 95

// query What pest or weed control at 500 ppm value was documented for this compound, CCCCCCCCCCCC(=O)N[C@@H](CCCNC(=N)N)C(=O)OCC ?
// result 80

// query What pest or weed control at 500 ppm value was documented for this compound, CCCCCCCCCCCCCC(=O)N[C@@H](Cc1c[nH]cn1)C(=O)OC ?
// result 85

---

Catalogue of Average number of disease lesions per leaf readings, one per entry.
Test system: Piricularia oryzae (rice blast)
CONDITION_DETAILS: Table 1; 500 ppm, 50 ml per pot; two days after infection; untreated 33.0
The answer should be written as a number, with no unit following it.

Check out these entries, answers already filled in.
# COMPOUND, RESULT_NUMBER
data = [
    ("CCCCCCCCCCCCCC(=O)N[C@@H](CCC(=O)O)C(=O)O", 9.9),
    ("CCCCCCCCCCCC(=O)N[C@H](C(=O)OCC)C(C)C", 7.3),
    ("CCCCCCCCCCCC(=O)N[C@@H](CC(C)C)C(=O)O", 8.9),
    ("CCCCCCCC/C=C\\CCCCCCCC(=O)NCC(=O)O", 11.0),
    ("CCCCCCCCCCCC(=O)N[C@@H](CC(=O)O)C(=O)O", 11.6),
    ("CCCCCCCCCCCC(=O)NC(Cc1ccc([N+](=O)[O-])cc1)C(=O)O (stereo not drawn)", 8.9),
    ("CCCCCCCCCCCC(=O)NC(Cc1ccccc1)C(=O)O (stereo not drawn)", 11.0),
    ("CCCCCCCCCC(=O)N[C@@H](Cc1ccccc1)C(=O)O", 11.6),
]

// query What Average number of disease lesions per leaf value was documented for this compound, CCCCCCCCCCCCCCCCCC(=O)N[C@@H](Cc1ccccc1)C(=O)O ?
// result 7.3
